# study.target: human Claudin18.2 (human)
# test.description: cell-based or functional assay
reported.metric: CDC % Relative activity (%)
Expressed in %, but write only the number.

Tell me its CDC % Relative activity given 259B4D4 (antibody, V domains shown) VH: EIQLQQSGPELMKPGASVRISCKASGYSFTSYYMHWMKQSHVKSLEWIGYIDPFNGNTRYNQKFKDKATLTVDKSSTTAYMHLSSLTSEDSAVYFCASLRFFAYWGQGTLVTVSA VL: DIVMTQSPSSLTVTAGEKVTMSCNSSQSLLNSGNQKNYLTWYQQKPGQPPKLLIYWASSRESGVPDRFTGSGSGTDFTLTISTVQAEDLAVYYCQNDYSFPLTFGAGTRLELK as the entry. 88.2

Tell me its CDC % Relative activity given 254A8D5 (antibody, V domains shown) VH: EVMLVESGGGLVKPGGSLKLSCAASGFTFSSYTVSWVRQTPEKRLEWVATSIVGSTYTYFPDSVKGRFTISRDFAKNTLFLQMSSLRSEDTAMYYCSRLGRGNAMDYWGQGTSVSVSS VL: DIVMTQSPSSLTVTAGEKVTLNCRSSQSLLNSGNQKNYLTWYQQKPGQPPKLLIYWASTRESGVPDRFTGSGSGTDFTLTISSVQADDLAVYYCQNGYSYPFTFGSGTKLEIK as the entry. 154
